Experiment: fluconazole-exposed Candida albicans growth modulators – fluorescence, retest, confirmation (AID 2467)
Format: functional, cell-based
The source made the active and inactive calls. Rule as the data show it: actives have a measured EC50 and inactives only a lower limit.
reported-metric: EC50

Solved entries:
compound	reported-metric	meas-value
Cc1cc(Cl)ccc1NNC(=O)c1c(C)noc1C	EC50	> 38 µM (not active)
NC(=O)c1ccc(Nc2nnc(-c3ccc(O)cc3)c3ccccc23)cc1	EC50	> 38 µM (not active)
CCn1nc(-c2ccccc2)nc2c(=O)n(C)c(=O)nc1-2	EC50	0.442 µM (active)
O=C1NC2(CCC3(CC2)OCCO3)NN1c1ccc(Cl)cc1	EC50	1.64 µM (active)

Please examine the following record next.
Input CCOc1ccc(CN(C(=O)c2oc3ccccc3c2C)C2CCS(=O)(=O)C2)cc1 (stereo not given) , output reported EC50. > 38 µM (not active)
